test system: α5β1 integrin (Homo sapiens, UniProt P05556+P08648)
Sequence (P08648 42-894 limits assumed): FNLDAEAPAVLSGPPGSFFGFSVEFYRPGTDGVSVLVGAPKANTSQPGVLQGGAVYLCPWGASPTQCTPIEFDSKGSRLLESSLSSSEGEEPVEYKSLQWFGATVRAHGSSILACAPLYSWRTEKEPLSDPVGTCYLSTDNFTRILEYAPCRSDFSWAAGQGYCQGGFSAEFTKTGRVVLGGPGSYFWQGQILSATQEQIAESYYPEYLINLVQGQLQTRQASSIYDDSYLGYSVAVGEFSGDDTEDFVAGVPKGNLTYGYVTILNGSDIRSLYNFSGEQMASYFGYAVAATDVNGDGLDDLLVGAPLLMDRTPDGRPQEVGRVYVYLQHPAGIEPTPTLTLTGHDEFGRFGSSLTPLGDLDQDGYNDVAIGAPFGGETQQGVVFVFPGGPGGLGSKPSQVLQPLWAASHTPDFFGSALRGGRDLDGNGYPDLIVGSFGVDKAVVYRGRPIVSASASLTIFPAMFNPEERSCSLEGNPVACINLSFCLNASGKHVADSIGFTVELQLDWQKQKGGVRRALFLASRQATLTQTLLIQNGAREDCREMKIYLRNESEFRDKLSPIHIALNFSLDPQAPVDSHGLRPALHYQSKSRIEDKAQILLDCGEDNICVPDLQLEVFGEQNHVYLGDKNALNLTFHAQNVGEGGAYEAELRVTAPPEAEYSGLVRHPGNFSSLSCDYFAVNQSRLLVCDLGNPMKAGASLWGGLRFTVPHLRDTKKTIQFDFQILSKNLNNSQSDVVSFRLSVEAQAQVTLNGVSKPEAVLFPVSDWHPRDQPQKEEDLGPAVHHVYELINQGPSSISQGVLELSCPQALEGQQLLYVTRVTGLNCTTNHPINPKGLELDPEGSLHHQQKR
Sequence (P08648 895-1049 partner limits assumed): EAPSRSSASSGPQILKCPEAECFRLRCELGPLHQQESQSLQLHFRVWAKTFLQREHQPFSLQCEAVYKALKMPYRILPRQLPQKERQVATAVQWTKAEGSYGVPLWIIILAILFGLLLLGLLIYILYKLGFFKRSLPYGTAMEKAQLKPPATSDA
Sequence (P05556 21-798): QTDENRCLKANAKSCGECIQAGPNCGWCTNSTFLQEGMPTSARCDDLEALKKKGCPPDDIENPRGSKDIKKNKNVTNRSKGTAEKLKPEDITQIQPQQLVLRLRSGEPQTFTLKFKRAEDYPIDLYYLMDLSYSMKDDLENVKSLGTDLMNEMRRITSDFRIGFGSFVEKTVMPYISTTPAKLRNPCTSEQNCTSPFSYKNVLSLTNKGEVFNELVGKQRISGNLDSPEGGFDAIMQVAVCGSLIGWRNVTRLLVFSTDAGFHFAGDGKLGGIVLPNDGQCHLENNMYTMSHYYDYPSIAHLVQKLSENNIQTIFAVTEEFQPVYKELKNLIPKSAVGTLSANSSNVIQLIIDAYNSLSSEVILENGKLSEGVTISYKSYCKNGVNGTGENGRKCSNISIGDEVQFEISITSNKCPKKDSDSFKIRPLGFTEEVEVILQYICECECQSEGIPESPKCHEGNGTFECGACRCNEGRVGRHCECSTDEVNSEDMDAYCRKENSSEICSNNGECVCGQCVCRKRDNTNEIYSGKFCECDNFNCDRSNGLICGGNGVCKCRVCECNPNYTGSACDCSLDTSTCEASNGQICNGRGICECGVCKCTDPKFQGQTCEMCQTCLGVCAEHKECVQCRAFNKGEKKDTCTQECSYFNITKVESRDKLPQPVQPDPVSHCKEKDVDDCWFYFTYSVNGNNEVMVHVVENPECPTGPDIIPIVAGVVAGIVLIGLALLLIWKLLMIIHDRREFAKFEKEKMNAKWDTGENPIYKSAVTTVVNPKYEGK
test details: Cell adhesion assay: K562 cells to immobilized fibronectin (α5β1 integrin-mediated)
condition notes: K562 cell adhesion to fibronectin

>  <molecule>
CC1=C(C(=O)NCc2ccc(N)cc2)C(CCCc2cn(CCNC(=O)OC(C)(C)C)nn2)N(C(=O)CC(=O)O)O1 (stereo not shown) [Compound 17a]

>  <α5β1 behaviour (agonist/antagonist)>
antagonist

$$$$
>  <molecule>
CC1=C(C(=O)NCc2ccc(N)cc2)C(CCCc2cn(CCCNC(=S)Nc3ccc(-c4c5ccc(=O)cc-5oc5cc(O)ccc45)c(C(=O)O)c3)nn2)N(C(=O)CC(=O)O)O1 (stereo not shown)

>  <α5β1 behaviour (agonist/antagonist)>
antagonist

$$$$
>  <molecule>
CC1=C(C(=O)NCc2ccc(N)cc2)C(CCCc2cn(CCCNC(=O)OC(C)(C)C)nn2)N(C(=O)CC(=O)O)O1 (stereo not shown) [Compound 17b]

>  <α5β1 behaviour (agonist/antagonist)>
antagonist

$$$$

###

test system: αvβ3 integrin (Homo sapiens, UniProt P05106+P06756)
Sequence (P06756 31-889 limits assumed): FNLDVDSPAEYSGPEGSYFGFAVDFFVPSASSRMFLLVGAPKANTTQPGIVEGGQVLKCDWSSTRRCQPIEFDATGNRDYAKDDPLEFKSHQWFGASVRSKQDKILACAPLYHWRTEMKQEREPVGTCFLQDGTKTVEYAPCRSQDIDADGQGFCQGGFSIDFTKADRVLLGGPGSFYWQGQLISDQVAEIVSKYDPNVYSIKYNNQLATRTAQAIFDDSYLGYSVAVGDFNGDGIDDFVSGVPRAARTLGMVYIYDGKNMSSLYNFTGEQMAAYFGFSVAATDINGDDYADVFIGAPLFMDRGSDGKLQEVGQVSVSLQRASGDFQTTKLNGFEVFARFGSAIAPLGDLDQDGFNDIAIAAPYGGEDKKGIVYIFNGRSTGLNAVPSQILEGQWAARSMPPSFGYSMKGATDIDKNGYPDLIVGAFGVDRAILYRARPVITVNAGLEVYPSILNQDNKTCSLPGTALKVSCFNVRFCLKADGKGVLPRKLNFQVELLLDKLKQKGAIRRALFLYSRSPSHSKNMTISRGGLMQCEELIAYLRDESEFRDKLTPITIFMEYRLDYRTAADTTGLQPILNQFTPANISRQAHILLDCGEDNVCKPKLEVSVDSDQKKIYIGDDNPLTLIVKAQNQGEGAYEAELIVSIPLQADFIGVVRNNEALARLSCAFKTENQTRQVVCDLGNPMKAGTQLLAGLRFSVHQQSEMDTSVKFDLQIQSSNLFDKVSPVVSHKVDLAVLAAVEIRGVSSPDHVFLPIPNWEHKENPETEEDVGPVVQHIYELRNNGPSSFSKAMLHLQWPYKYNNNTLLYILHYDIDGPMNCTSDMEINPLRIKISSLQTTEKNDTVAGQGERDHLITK
Sequence (P06756 891-1048 partner limits assumed): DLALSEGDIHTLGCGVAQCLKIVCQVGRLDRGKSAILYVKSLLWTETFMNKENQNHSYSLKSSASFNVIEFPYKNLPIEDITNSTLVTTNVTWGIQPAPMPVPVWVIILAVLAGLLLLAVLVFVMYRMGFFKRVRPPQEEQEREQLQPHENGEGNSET
Sequence (P05106 27-788): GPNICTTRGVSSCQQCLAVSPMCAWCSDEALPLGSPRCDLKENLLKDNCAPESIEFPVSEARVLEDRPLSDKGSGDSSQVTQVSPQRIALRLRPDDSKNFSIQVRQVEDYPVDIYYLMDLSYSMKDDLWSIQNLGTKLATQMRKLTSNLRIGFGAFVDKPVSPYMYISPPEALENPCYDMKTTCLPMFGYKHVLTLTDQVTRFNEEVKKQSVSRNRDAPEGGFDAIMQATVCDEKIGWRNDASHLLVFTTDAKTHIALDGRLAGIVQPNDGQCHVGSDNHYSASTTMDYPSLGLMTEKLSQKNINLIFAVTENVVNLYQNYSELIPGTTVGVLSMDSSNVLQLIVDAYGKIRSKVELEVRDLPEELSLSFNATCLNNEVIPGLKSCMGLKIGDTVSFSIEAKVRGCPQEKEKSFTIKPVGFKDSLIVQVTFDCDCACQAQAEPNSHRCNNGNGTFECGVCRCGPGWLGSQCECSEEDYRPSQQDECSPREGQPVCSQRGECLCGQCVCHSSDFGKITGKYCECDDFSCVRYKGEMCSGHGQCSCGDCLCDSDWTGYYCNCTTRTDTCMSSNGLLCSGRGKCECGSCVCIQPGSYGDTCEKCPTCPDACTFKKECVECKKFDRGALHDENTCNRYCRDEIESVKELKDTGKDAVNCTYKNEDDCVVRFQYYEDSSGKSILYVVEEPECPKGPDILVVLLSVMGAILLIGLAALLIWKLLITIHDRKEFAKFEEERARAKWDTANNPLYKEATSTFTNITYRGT
test details: Cell adhesion assay: SK-MEL-24 cells to immobilized fibronectin (αvβ3 integrin-mediated)
pEC50: −log10 of the molar value.

>  <molecule>
CC1=C(C(=O)NCc2ccc(N)cc2)C(CCCc2cn(CCC(=O)OC(C)(C)C)nn2)N(C(=O)CC(=O)O)O1 (stereo not shown) [Compound 20b]

>  <pEC50>
7.17

$$$$
>  <molecule>
C#CCCCC1C(C(=O)NCc2ccc(N)cc2)=C(C)ON1C(=O)CC(=O)O (stereo not shown) [Compound 8]

>  <pEC50>
6.08

$$$$
>  <molecule>
CC1=C(C(=O)NCc2ccc(N)cc2)C(CCCc2cn(CC(=O)OC(C)(C)C)nn2)N(C(=O)CC(=O)O)O1 (stereo not shown) [Compound 20a]

>  <pEC50>
6.64

$$$$
>  <molecule>
CCOC(=O)CCCCn1cc(CCCC2C(C(=O)NCc3ccc(N)cc3)=C(C)ON2C(=O)CC(=O)O)nn1 (stereo not shown) [Compound 26]

>  <pEC50>
6.21

$$$$

###

test system: α5β1 integrin (Homo sapiens, UniProt P05556+P08648)
test details: Cell adhesion assay: K562 cells to immobilized fibronectin (α5β1 integrin-mediated)
Here the recorded IC50 is given for each entry.

>  <compound>
CC1=C(C(=O)NCc2ccc(N)cc2)C(CCCc2cn(CCOCCOCCNC(=O)OC(C)(C)C)nn2)N(C(=O)CC(=O)O)O1 (stereo not drawn)

>  <IC50>
> 1000 µM

$$$$
>  <compound>
CCOC(=O)COCCOCCn1cc(CCCC2C(C(=O)NCc3ccc(N)cc3)=C(C)ON2C(=O)CC(=O)O)nn1 (stereo not drawn)

>  <IC50>
> 1000 µM

$$$$
>  <compound>
C#CCCCC1C(C(=O)NCc2ccc(N)cc2)=C(C)ON1C(=O)CC(=O)O (stereo not drawn)

>  <IC50>
> 1000 µM

$$$$

###

test system: αvβ3 integrin (Homo sapiens, UniProt P05106+P06756)
test details: Cell adhesion assay: SK-MEL-24 cells to immobilized fibronectin (αvβ3 integrin-mediated)
# IC50 per record follows
reported endpoint: IC50

>  <compound>
CC1=C(C(=O)NCc2ccc(N)cc2)C(CCCc2cn(CCCNC(=O)CCC(=O)OC(C)(C)C)nn2)N(C(=O)CC(=O)O)O1 (stereo not drawn)

>  <result value>
> 1 mM

$$$$
>  <compound>
CC1=C(C(=O)NCc2ccc(N)cc2)C(CCCc2cn(CCCNC(=O)OC(C)(C)C)nn2)N(C(=O)CC(=O)O)O1 (stereo not drawn) [Compound 17b]

>  <result value>
> 1 mM

$$$$
>  <compound>
CCOC(=O)COCCOCCn1cc(CCCC2C(C(=O)NCc3ccc(N)cc3)=C(C)ON2C(=O)CC(=O)O)nn1 (stereo not drawn)

>  <result value>
> 1 mM

$$$$
